- experimentalTarget: human TFPI alpha (full-length TFPIα) (human, UniProt P10646 29-304)
- protocolNotes: cell-based or functional assay
observable: ttPeak (min), 200 nM mAb (2 x 100 nM), FVIII-neutralised plasma + 20 nM TFPIα
Answer with a number only, understood to be in min.

Entry mAb 1F91 (antibody, V domains shown) VH: DVQLQESGPGLVKPSQSLSLTCTVSGYSITSDYAWNWIRQFPGNKLEWMGYISYSGSTSYNPSLKSRISITRDTSKNQFFLQLNSVTTEDTATYYCARWAYDGPWGQGTLVTVSA VL: QIVLSQSPALLSASPGEKVTMTCRASSSVSHMHWYQQKPGSSPKPWIYATSNLASGVPARFSGSGSGTSYSLTITRVEAEDAATYYCQQWSSNPFTFGSGTKLEIKR : reported ttPeak (min), 200 nM mAb (2 x 100 nM), FVIII-neutralised plasma + 20 nM TFPIα = ?
0

Entry mAb 2F22 (antibody, V domains shown) VH: QVQLKQSGPGLVQPSQSLSITCTVSGFSLTNYGVHWVRQSPGKGLEWLAVIWRGGSIDYNAAFMSRLSITKDNSKSQVFFKMNSLQADDTAIYYCAKNSHGNYVGYAMDYWGQGTSVTVSS VL: GIVMTQSQKFMSTTVGDRVSITCKASQSVGPAVAWYQQKPGQSPKLLIYSASNRYTGVPDRFTGSGSGADFTLTISNLHSEDLADYFCQQYTSYPTFGGGTKLEIKR : reported ttPeak (min), 200 nM mAb (2 x 100 nM), FVIII-neutralised plasma + 20 nM TFPIα = ?
13.6

Entry mAb 4F110 (antibody, human IgG4 S228P, kappa, V domains shown) VH: QVQLQQSGAELVKPGASVKLSCKASGYTFISYYMYWVKQRPGQGLEWIGEINPSNGDTNLNEKFKSKATLTVDKSSSTVYMQLSSLTSEDSAVYYCTRWDRFDGFVYWGQGTLVTVSA VL: ETTVTQSPASLSMAIGGKVTIRCIISTNIDDDINWYQQKPGEPPKLLISEGNTLRPGVPSRFSSSGYGTDFVFTIENMLSEDVADYYCLQSDDLPYTFGGGTKLEIKR : reported ttPeak (min), 200 nM mAb (2 x 100 nM), FVIII-neutralised plasma + 20 nM TFPIα = ?
0

Entry mAb 2F3 (antibody, V domains shown) VH: QVQLKQSGPGLVQPSQSLSITCTVSGFSLSSYGVHWVRQSPGKGLEWLGVIWRGGSTDFNAAFMSRVSFTKDNSKSQVFFKMNSLQADDTAIYYCAKNSHGNYVGYAMDYWGQGTSVTVSS VL: DIVMTQSQKFMSTTVGDKVSIPCKASENVGAAVAWYQQKPGQSPTLLIYSASNRYTGIPDRFTGSGSGTDFTLTIRTVQSEDLADYFCQQYTNYPTFGGGTKLEIKR : reported ttPeak (min), 200 nM mAb (2 x 100 nM), FVIII-neutralised plasma + 20 nM TFPIα = ?
14.6
